B1: ZNF232 (parent)
chain: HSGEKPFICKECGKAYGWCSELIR

# Variants of: B1
# procedure-details: protein stability index of a GFP-peptide fusion (GPS, HEK-293T) (PSI 1-6); higher = more stable;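 further: lentivirally expressed fusions sorted by FACS into six bins by GFP to DsRed ratio, PSI derived from sequencing read proportions per bin multiplied by bin number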
# conditions: c terminus: a fixed tail appended
readout-label: protein stability index
Answer with the value's number alone.

HSGEKPFICKECGKAYGWCSYLIR [E21Y] ... 2.12
HSGEKPFICTECGKAYGWCSELIR [K10T] ... 1.66
HSGEKPWICKECGKAYGWCSELIR [F7W] ... 2.09

// protein stability index lookup, key: HSGEKPFICKECGKAYGSCSELIR [W18S]
2.67

// protein stability index lookup, key: HSGEKPFICKECGKAYGWCSELIT [R24T]
2.32

The measurements presented in this section are drawn from the supplement of paper PMC10567573.
